The sequences listed here are annotated with their PBM binding z-score.
Test system: PPARg DBDmut IVT, anti-PPARg (DBD mutation: PPARg1 K132A/R137A, NR concentration 270 nM)
Protocol Notes: PBM binding z-score (relative to random genomic background probes); higher = stronger binding; sequences stand for … in GC…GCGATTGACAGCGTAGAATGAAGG
Metric Name: PBM binding z-score

- Chain: "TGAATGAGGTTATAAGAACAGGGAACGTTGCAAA"
  Result: 0.453
- Chain: "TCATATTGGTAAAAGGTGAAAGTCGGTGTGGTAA"
  Result: 2.43
- Chain: "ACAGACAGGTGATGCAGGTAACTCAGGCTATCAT"
  Result: 0.231
- Chain: "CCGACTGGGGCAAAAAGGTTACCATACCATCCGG"
  Result: -1.12
- Chain: "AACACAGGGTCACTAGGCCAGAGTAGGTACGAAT"
  Result: 0.694
- Chain: "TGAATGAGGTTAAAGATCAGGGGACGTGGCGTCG"
  Result: 0.582

* * *

Test system: VDR:RXRa (NR concentration 270 nM, RXRa partner concentration 90 nM)
Protocol Notes: PBM binding z-score (relative to random genomic background probes); higher = stronger binding; sequences stand for … in GC…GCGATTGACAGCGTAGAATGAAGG
Measured PBM binding z-score of individual entries
Metric Name: PBM binding z-score

- Chain: "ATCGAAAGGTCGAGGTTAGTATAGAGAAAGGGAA"
  Metric Name: "PBM binding z-score"
  Quantitative Readout: 2.75
- Chain: "CGAACTAGGTCAAGGACAGTCAATCTCCGCACGC"
  Metric Name: "PBM binding z-score"
  Quantitative Readout: 1.61
- Chain: "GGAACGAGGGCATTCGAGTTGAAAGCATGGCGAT"
  Metric Name: "PBM binding z-score"
  Quantitative Readout: 3.59
- Chain: "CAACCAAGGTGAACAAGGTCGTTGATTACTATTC"
  Metric Name: "PBM binding z-score"
  Quantitative Readout: 5.89
- Chain: "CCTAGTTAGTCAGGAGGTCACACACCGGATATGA"
  Metric Name: "PBM binding z-score"
  Quantitative Readout: 3.97
- Chain: "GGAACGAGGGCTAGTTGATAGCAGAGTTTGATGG"
  Metric Name: "PBM binding z-score"
  Quantitative Readout: -0.607
- Chain: "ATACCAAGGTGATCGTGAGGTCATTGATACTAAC"
  Metric Name: "PBM binding z-score"
  Quantitative Readout: 5.31
- Chain: "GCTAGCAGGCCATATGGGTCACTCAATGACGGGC"
  Metric Name: "PBM binding z-score"
  Quantitative Readout: 0.951
- Chain: "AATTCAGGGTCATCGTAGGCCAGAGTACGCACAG"
  Metric Name: "PBM binding z-score"
  Quantitative Readout: 5.7
- Chain: "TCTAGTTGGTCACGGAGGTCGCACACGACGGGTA"
  Metric Name: "PBM binding z-score"
  Quantitative Readout: 4.06
- Chain: "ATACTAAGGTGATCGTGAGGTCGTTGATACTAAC"
  Metric Name: "PBM binding z-score"
  Quantitative Readout: 3.72
- Chain: "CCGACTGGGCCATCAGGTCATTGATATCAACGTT"
  Metric Name: "PBM binding z-score"
  Quantitative Readout: 1.63
- Chain: "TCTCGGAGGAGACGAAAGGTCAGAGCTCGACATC"
  Metric Name: "PBM binding z-score"
  Quantitative Readout: 1.87
- Chain: "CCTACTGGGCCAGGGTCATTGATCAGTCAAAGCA"
  Metric Name: "PBM binding z-score"
  Quantitative Readout: 3.14
- Chain: "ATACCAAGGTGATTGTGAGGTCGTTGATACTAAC"
  Metric Name: "PBM binding z-score"
  Quantitative Readout: 3.53
- Chain: "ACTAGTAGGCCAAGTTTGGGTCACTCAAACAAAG"
  Metric Name: "PBM binding z-score"
  Quantitative Readout: 0.967
- Chain: "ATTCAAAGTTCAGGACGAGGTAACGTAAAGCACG"
  Metric Name: "PBM binding z-score"
  Quantitative Readout: 3.14
- Chain: "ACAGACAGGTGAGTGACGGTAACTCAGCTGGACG"
  Metric Name: "PBM binding z-score"
  Quantitative Readout: -0.336
- Chain: "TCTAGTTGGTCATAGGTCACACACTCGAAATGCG"
  Metric Name: "PBM binding z-score"
  Quantitative Readout: 3.19
- Chain: "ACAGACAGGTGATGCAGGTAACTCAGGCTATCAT"
  Metric Name: "PBM binding z-score"
  Quantitative Readout: -0.283
- Chain: "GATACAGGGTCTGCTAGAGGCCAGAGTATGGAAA"
  Metric Name: "PBM binding z-score"
  Quantitative Readout: -0.492
- Chain: "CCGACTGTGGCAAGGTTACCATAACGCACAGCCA"
  Metric Name: "PBM binding z-score"
  Quantitative Readout: 0.0735
- Chain: "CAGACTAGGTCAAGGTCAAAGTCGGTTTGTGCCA"
  Metric Name: "PBM binding z-score"
  Quantitative Readout: 5.15
- Chain: "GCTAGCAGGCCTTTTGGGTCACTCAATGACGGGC"
  Metric Name: "PBM binding z-score"
  Quantitative Readout: -0.0926
- Chain: "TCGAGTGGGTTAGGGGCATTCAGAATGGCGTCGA"
  Metric Name: "PBM binding z-score"
  Quantitative Readout: 1.04
- Chain: "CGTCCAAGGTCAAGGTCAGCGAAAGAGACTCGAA"
  Metric Name: "PBM binding z-score"
  Quantitative Readout: 4.97
